Taken from patent US20070244048A1.

Target: T1, human NMUR1 (human, UniProt Q9HB89 1-426)
T1 sequence (looked up): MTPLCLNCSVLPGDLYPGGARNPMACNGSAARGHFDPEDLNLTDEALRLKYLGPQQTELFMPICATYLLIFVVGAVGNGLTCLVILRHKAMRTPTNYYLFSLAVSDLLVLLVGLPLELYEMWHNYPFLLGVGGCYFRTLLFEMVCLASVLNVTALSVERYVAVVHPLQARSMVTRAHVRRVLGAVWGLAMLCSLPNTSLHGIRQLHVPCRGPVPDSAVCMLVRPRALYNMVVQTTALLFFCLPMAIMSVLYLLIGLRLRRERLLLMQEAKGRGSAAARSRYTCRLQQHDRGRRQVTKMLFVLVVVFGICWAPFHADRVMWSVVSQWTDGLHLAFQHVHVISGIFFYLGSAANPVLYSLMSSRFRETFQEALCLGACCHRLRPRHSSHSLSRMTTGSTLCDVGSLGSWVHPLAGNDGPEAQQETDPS
Test: 125I-hNMU-25 displacement, cell membranes
Non-standard residues stand in square brackets, D forms with d. No end group written: not given here.
metric: IC50 (nM)
Respond with the bare value in nM.

Input: Item under review: FRVDEEFQSPFASQSRGYF[dL]WRPRN-NH2 (not fully specified) [neuromedin U receptor agonist H] . Reported IC50?
Output: 1.1
